// reported inhibition of growth at 10 µM per item
Tested on: CAKI-1
assay.summary: Antiproliferative activity against human CAKI-1 cells assessed as cell growth inhibition at 10 uM incubated for 48 hrs by SRB assay relative to control
Format: functional
details: read-out: GI
observed.property: inhibition of growth at 10 µM (%)

compound_smiles=Cc1nc2c(cnn2-c2ccccc2)c(=O)n1-c1ccc(NC(=O)c2ccc([N+](=O)[O-])cc2)cc1 system_tested=CAKI-1 quantity_unit=% relation== measurement=31.5
compound_smiles=Cc1nc2c(cnn2-c2ccccc2)c(=O)n1-c1ccc(NC(=O)c2ccco2)cc1 system_tested=CAKI-1 quantity_unit=% relation=< measurement=15
compound_smiles=Cc1nc2c(cnn2-c2ccccc2)c(=O)n1-c1ccc(/N=C2\C(=O)Nc3ccccc32)cc1 system_tested=CAKI-1 quantity_unit=% relation== measurement=31.7
compound_smiles=Cc1nc2c(cnn2-c2ccccc2)c(=O)n1-c1ccc(NC(=O)c2ccccc2)cc1 system_tested=CAKI-1 quantity_unit=% relation== measurement=33.4
compound_smiles=CC(=O)Nc1ccc(-n2c(C)nc3c(cnn3-c3ccccc3)c2=O)cc1 system_tested=CAKI-1 quantity_unit=% relation== measurement=31.1
compound_smiles=COc1ccc(/C=C/C(=O)c2ccc(-n3c(C)nc4c(cnn4-c4ccccc4)c3=O)cc2)cc1 system_tested=CAKI-1 quantity_unit=% relation== measurement=25
compound_smiles=Cc1nc2c(cnn2-c2ccccc2)c(=O)n1-c1ccc(NC(=O)c2ccc(Cl)cc2)cc1 system_tested=CAKI-1 quantity_unit=% relation== measurement=29.7
compound_smiles=Cc1ccc(C(=O)Nc2ccc(-n3c(C)nc4c(cnn4-c4ccccc4)c3=O)cc2)cc1 system_tested=CAKI-1 quantity_unit=% relation== measurement=27.6
compound_smiles=Cc1nc2c(cnn2-c2ccccc2)c(=O)n1-c1ccc(N)cc1 system_tested=CAKI-1 quantity_unit=% relation== measurement=31.7
